All values here come from patent US7491745B2.

- System: H1299 human non-small cell lung cancer cells
- PROTOCOL DETAILS: Cell viability, cellular ATP levels (ViaLight), H1299
- Format: cell-based
- MEASUREMENT CONDITIONS: NCI-H1299, Cell line H1299, NSCL-LC, 72 hours, read-out: IC50 of Compound 138T
REPORTED PROPERTY: pIC50
Scale: negative log10 of molar concentration, which is what pIC50 denotes.

Sample COC1=CC(c2ccc[nH]2)=NC1=Cc1[nH]c(C)cc1C [Compound 138T] ; pIC50 observed: 7.15

* * *

- Tested on: OVCAR-3 human ovarian carcinoma cal line
- PROTOCOL DETAILS: Cell viability, cellular ATP levels (ViaLight), OVCAR-3
- Format: cell-based
- MEASUREMENT CONDITIONS: Cell line OVCAR-3, Ovary, 72 hours, read-out: IC50 of Compound 138T
REPORTED PROPERTY: IC50 (nM)
Dear colleague, please return just the value in nM, with no unit written.

Sample COC1=CC(c2ccc[nH]2)=NC1=Cc1[nH]c(C)cc1C [Compound 138T] ; IC50 observed: 30

* * *

- System: H460 large cell lung cancer cell line
- PROTOCOL DETAILS: Cell viability, cellular ATP levels (ViaLight), H460
- Assay type: cell-based
- MEASUREMENT CONDITIONS: Homo sapiens, NCI-H460, Cell line H460, NSCL-LC, 72 hours, read-out: IC50 of Compound 138T
REPORTED PROPERTY: IC50

Sample COC1=CC(c2ccc[nH]2)=NC1=Cc1[nH]c(C)cc1C [Compound 138T] ; IC50 observed: 60 nM

* * *

- Test system: C33A cervical carcinoma cells
- PROTOCOL DETAILS: Cell viability, cellular ATP levels (ViaLight), C33A
- Type: cell-based, human
- MEASUREMENT CONDITIONS: Homo sapiens, C-33-A; Cell line C3AA, Cervix; ATP levels; 72 hours; read-out: IC50 of Compound 138T
REPORTED PROPERTY: IC50 (nM)
Dear colleague, please return just the value in nM, with no unit written.

Sample COC1=CC(c2ccc[nH]2)=NC1=Cc1[nH]c(C)cc1C [Compound 138T] ; IC50 observed: 30
